experiment: Agonist activity at beta1 adrenoceptor in electrically stimulated Dunkin Hartley guinea pig left atria assessed as induction of isoprenaline-induced contraction incubated for 10 to 15 mins by alphascreen technology; conditions: Cavia porcellus
Readout: pEC50
# pEC50 is unitless: minus log10 of the molar concentration; print number only

[ask] Could you tell me which pEC50 is on file for CCc1cc2c(cc1CC)CC(NC[C@H](O)c1ccc(O)c3[nH]c(=O)ccc13)C2 [INDACATEROL] ?
[reply] 5.20

====

target: Beta-1 adrenergic receptor (Homo sapiens); assay: Inhibition of 3H]CGP12177 binding to human beta1 adrenoceptor expressed in sf9 cell membranes incubated for 60 mins by scintillation counting method
Sequence (P08588 whole entry): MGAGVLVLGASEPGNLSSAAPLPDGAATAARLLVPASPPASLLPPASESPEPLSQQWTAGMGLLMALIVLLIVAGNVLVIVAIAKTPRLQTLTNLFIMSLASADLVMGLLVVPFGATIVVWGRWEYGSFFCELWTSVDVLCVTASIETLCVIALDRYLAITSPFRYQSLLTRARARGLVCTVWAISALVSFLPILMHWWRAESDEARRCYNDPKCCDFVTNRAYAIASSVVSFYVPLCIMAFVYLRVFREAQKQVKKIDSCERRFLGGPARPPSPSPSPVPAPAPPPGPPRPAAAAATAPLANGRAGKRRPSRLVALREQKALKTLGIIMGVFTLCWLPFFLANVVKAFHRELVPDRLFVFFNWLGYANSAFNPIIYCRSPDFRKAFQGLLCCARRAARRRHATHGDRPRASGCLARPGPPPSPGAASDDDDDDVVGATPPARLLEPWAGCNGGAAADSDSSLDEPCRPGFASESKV
Readout: pEC50
// pEC50: -log10(molar conc.)

[ask] Suppose we examine the compound O=c1ccc2c([C@@H](O)CNCCCCCCOCC(F)(F)c3ccccc3)ccc(O)c2[nH]1 [ABEDITEROL] ; what pEC50 value has been reported?
[reply] 7.44

====

molecular target: Beta-2 adrenergic receptor (Homo sapiens); test: Agonist activity at beta2 adrenoceptor (unknown origin) expressed in CHO-K1 cells harboring Galpha15 assessed as induction of calcium current by FLIPRtetra method; format: functional, cell-based
Sequence (P07550 whole entry): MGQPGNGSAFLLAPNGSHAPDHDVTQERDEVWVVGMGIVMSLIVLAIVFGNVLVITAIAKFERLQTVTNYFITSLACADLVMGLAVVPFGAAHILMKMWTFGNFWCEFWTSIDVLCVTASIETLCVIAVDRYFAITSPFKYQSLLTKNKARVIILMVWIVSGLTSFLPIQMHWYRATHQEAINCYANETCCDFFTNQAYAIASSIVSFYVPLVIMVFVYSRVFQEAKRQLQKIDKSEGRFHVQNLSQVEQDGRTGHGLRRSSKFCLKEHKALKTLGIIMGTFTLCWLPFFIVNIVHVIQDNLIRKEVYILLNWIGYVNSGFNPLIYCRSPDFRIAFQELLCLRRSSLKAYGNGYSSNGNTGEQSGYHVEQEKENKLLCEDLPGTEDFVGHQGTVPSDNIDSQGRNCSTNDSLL
Readout: EC50 (nM)
Quick reminder: number only, in nM, skip the unit.

[ask] Please state recorded EC50 (tested on Beta-2 adrenergic receptor (Homo sapiens)) of Oc1cc2c(cc1O)C(c1ccco1)=NCC2
[reply] 87.9

====

molecular target: Beta-2 adrenergic receptor (Homo sapiens); test: Agonist activity at beta2 adrenoceptor in human A431 cells measured for 24 hrs; assay type: functional, cell-based, A-431
Listing of recorded EC50 by entry.
Answer in µM, number only, no unit symbol.

[[record]]
compound = "COc1cc(CCC(O)CC(O)CCc2ccc(O)c(O)c2)ccc1O (configuration not stated)"
subject_of_test = "Beta-2 adrenergic receptor (Homo sapiens)"
readout = "EC50"
measured = 5.92


Read the next record carefully.
[ask] Value lookup for EC50; key = COc1cc(CCC(O)CC(O)CCc2cc(O)c(O)c(OC)c2)ccc1O (configuration not stated)
[reply] 23.8

====

# key: entry, value: EC50
tested on: RAW264.7; assay: Antiinflammatory activity in mouse RAW264.7 cells assessed as reduction in LPS-induced NO production incubated for 24 hrs by Greiss reagent based ELISA; settings: RAW264.7, 24 h
Quick note: give the figure in µM, leave out the unit.

[ask] I have this compound here, OCc1ccc(C2=NCCc3cc(O)c(O)cc32)o1 , and I need its recorded EC50.
[reply] 18

[ask] Please report the recorded EC50 for CCOC(=O)CC[C@@H]1NCCc2cc(O)c(O)cc21 .
[reply] 18

The reported measurements were obtained from ChEMBL document CHEMBL4818991.
